Molecular target: the molecule itself
Test: cross-linking; Mg2+-loaded proteins: 0.02% glutaric aldehyde, 16 h, 20 °C, protein 1 mg/mL, 20 mM Tricine-KOH pH 7.4, 50 mM KCl, 1 mM DTT, 1 mM MgCl2, 1 mM EGTA; SDS-PAGE, Coomassie, densitometry; self-association
measuredEndpoint: Monomer 20 kDa, % (%)
One number for each entry, in %.

human recoverin mutant Y86A (natural protein, UniProt P35243 1-200, looked up, myristoylated (fraction of non-myristoylated forms did not exceed 16%), recoverin, human, UniProt P35243, N-terminal 'black' cluster mutant; Parent construct as m1; source: E. coli, expressed and purified similarly to the rWT protein (phenyl-Sepharose, Toyopearl SuperQ-650M)) MGNSKSGALSKEILEELQLNTKFSEEELCSWYQSFLKDCPTGRITQQQFQSIYAKFFPDTDPKAYAQHVFRSFDSNLDGTLDFKEAVIALHMTTAGKTNQKLEWAFSLYDVDGNGTISKNEVLEIVMAIFKMITPEDVKLLPDDENTPEKRAEKIWKYFGKNDDDKLTEKEFIEGTLANKEILRLIQFEPQKVKEKMKNA	66.1
human recoverin mutant F70A (natural protein, UniProt P35243 1-200, looked up, myristoylated (fraction of non-myristoylated forms did not exceed 16%), recoverin, human, UniProt P35243, N-terminal 'gray' cluster mutant; Parent construct as m1; source: E. coli, expressed and purified similarly to the rWT protein (phenyl-Sepharose, Toyopearl SuperQ-650M)) MGNSKSGALSKEILEELQLNTKFSEEELCSWYQSFLKDCPTGRITQQQFQSIYAKFFPDTDPKAYAQHVARSFDSNLDGTLDFKEYVIALHMTTAGKTNQKLEWAFSLYDVDGNGTISKNEVLEIVMAIFKMITPEDVKLLPDDENTPEKRAEKIWKYFGKNDDDKLTEKEFIEGTLANKEILRLIQFEPQKVKEKMKNA	73.1

List Monomer 20 kDa, % for every entry below, keeping the order given.
1. human recoverin mutant F49A (natural protein, UniProt P35243 1-200, looked up, myristoylated (fraction of non-myristoylated forms did not exceed 16%), recoverin, human, UniProt P35243, N-terminal 'gray' cluster mutant; Parent construct as m1; source: E. coli, expressed and purified similarly to the rWT protein (phenyl-Sepharose, Toyopearl SuperQ-650M)) MGNSKSGALSKEILEELQLNTKFSEEELCSWYQSFLKDCPTGRITQQQAQSIYAKFFPDTDPKAYAQHVFRSFDSNLDGTLDFKEYVIALHMTTAGKTNQKLEWAFSLYDVDGNGTISKNEVLEIVMAIFKMITPEDVKLLPDDENTPEKRAEKIWKYFGKNDDDKLTEKEFIEGTLANKEILRLIQFEPQKVKEKMKNA
2. human recoverin mutant F172A (natural protein, UniProt P35243 1-200, looked up, myristoylated (fraction of non-myristoylated forms did not exceed 16%), recoverin, human, UniProt P35243, C-terminal 'black' cluster mutant; Parent construct as m1; source: E. coli, expressed and purified similarly to the rWT protein (phenyl-Sepharose, Toyopearl SuperQ-650M)) MGNSKSGALSKEILEELQLNTKFSEEELCSWYQSFLKDCPTGRITQQQFQSIYAKFFPDTDPKAYAQHVFRSFDSNLDGTLDFKEYVIALHMTTAGKTNQKLEWAFSLYDVDGNGTISKNEVLEIVMAIFKMITPEDVKLLPDDENTPEKRAEKIWKYFGKNDDDKLTEKEAIEGTLANKEILRLIQFEPQKVKEKMKNA

Data returned:
[67.9, 63.4]
